system: Bacillus subtilis; assay: cleaved RNA product abundance (RNA/gDNA barcode ratio) relative to median wild-type variant (ratio to wild type); higher = more accumulation of the downstream cleavage product; settings: experiment (reporter, strain, medium): exp 8a: truncated aprE reporter, strain BJT201 with 2% xylose (RNase J1 expressed); cleavage site: glnRA (positions -5 to +31 mutated)
property.name: cleaved RNA product abundance

Known results for sequences:
cleaved RNA product abundance measured on CGACATGTCCCGCTTCTTTCATTAATCCGTTAGCAACTGTTTTCCTATATACATTCACCTTTTAAGAGGAGGAAT = 0.346

Entry CGACATGTCCCGCTTCTTTCATTAATCCGTTAGCAACTGTTCTGCTATATACATTTACTTTTTAAGAGGAGGAAT , cleaved RNA product abundance reported as 0.495

Lab book: cleaved RNA product abundance of CGACATGTCCCGCTTCTTTCATTAATCCGTAAGCAACTGTTTCGCTATATACATTTACCTTTTAAGAGGAGGAAT noted as 0.145

New cases:
Documented cleaved RNA product abundance of CGACATGTCCCGCTTCTTTCATTAACCCGTTAGCAACTGTTTTGCTATATACCTATACCTTTTAAGAGGAGGAAT : 0.789

Reported cleaved RNA product abundance of CGACATGTCCCGCTTCTTTCATTAATCCGTTAGCAACTGCTTTGCTGTATACATTTACCTTTTAAGAGGAGGAAT : 0.106

CGACATGTCCCGCTTCTTTCATTAATCCGTTAGCAACTGTTTTGTTATATACATATACCTTTTAAGAGGAGGAAT yielded cleaved RNA product abundance of 0.573

###

Quick reference for cleaved RNA product abundance among some sequences
system: Bacillus subtilis; assay: cleaved RNA product abundance (RNA/gDNA barcode ratio) relative to median wild-type variant (ratio to wild type); higher = more accumulation of the downstream cleavage product; conditions: experiment (reporter, strain, medium): exp 2b: truncated aprE reporter, strain BJT200; cleavage site: cggR-gapA (positions -7 to +36 mutated)
Respond with the number and no other words.

// sample ACAGACGAAGGAGCCGCAAAGAAGTAATTAAGGGACGAATAATCCCTCAATATAAATATCTCTCACTTATTTAAA , its cleaved RNA product abundance was 0.139

The recorded cleaved RNA product abundance for ACAGACGAAGGAGCCGCAAAGAAGTTATCAAGGGATGAATAATCACTCAATATAAATATCTCTCACTTATTTAAA is 0.123

Looking up ACAGACGAAGGAGCCGCAAAGAAGTTATTAAGGGATGAATAATCCCTCAATATAAATTTCTCTCACTTATTTAAA , I found its cleaved RNA product abundance recorded as 0.72

sequence ACAGACGAAGGAGCCGCAAAGATGTTATTAACGGATGAATAATCCCTCAATATAAATATCTCTCACTTATTTAAA , cleaved RNA product abundance observed: 0.104

Form: sequence = ACAGACGAAGGAGCCGCAAAGAACTTATGAAGGGATGAATAATCCCTCAATATAAATATCTCTCACTTATTTAAA ; cleaved RNA product abundance = 0.274

***
Entry ACAGACGAAGGAGCCGCAAAAAAGTTATTAAGGGATGAATAATCCCGCAATATAAATATCTCTCACTTATTTAAA — recorded cleaved RNA product abundance = 0.141

Query ACAGACGAAGGAGCCGCAAAGATGTTATTAAGGGTTGAATAATCCCTCAATATAAATATCTCTCACTTATTTAAA yields cleaved RNA product abundance of 0.251

So, ACAGACGAAGGAGCCGCAAAGAAGTTATTAATGGATGAATAATCCCTCAATATAAATTTCTCTCACTTATTTAAA ? Its cleaved RNA product abundance was 0.112

Reference source for all entries: the supplement of paper PMC11780869
